The measurements presented in this section are drawn from ChEMBL document CHEMBL1126350.

- Species: Rattus norvegicus
- Assay summary: Inhibition of kainic acid (KA)-induced currents in rat brain mRNA-injected xenopus oocytes
- Type: functional
Catalogue of compounds with associated Ki

Observe how each entry below is paired with its result.
Compound: Cc1cccc(CC(N)C(=O)O)c1CCP(=O)(O)O (stereo not drawn)
Ki: > 100 µM
//
Compound: Cc1cccc(CCP(=O)(O)O)c1CC(N)C(=O)O (stereo not drawn)
Ki: > 100 µM

Now, please, on to the next compound.
Any idea what its Ki is? The compound is Cc1ccc(CC(N)C(=O)O)c(CCP(=O)(O)O)c1 (stereo not drawn)
> 100 µM
